PROCEDURE SUMMARY: Viscosity, AND SV10 vibrational viscometer
Type: physicochemical
RUN PARAMETERS: product dried to water content between about 0.2 and 1% w/w
Viscosity at 25° C. (centipoise) (error ± ~5%) of 800 centipoise or higher: t. Under 800 centipoise: f.

[[record]]
compound = "CC(=O)O.CCCCNCCO [N-butylethanolammonium acetate]"
assigned_class = "f"

[[record]]
compound = "CC(=O)O.CCCNCCO [N-propylethanolammonium acetate]"
assigned_class = "t"

[[record]]
compound = "CCN(CC)CCO.O=C(O)CO [N,N-diethylethanolammonium glycolate]"
assigned_class = "f"

[[record]]
compound = "CCCCCCCC(=O)O.CCCCNCCO [N-butylethanolammonium octanoate]"
assigned_class = "f"


---

PROCEDURE SUMMARY: Density, mass of a measured volume of the liquid
Type: physicochemical
RUN PARAMETERS: product dried to water content between about 0.2 and 1% w/w
Density (g/cm^3) (error ± ~2%) of 1 g/mL or higher: rule met. Under 1 g/mL: rule not met.

[[record]]
molecule = "CC(=O)O.COCCCN [3-methoxypropylammonium acetate]"
assigned_class = "rule met"

[[record]]
molecule = "CCN(CC)CCO.O=CO [N,N-diethylethanolammonium formate]"
assigned_class = "rule met"

[[record]]
molecule = "CC(=O)O.CCCNCCO [N-propylethanolammonium acetate]"
assigned_class = "rule met"

[[record]]
molecule = "CCCCCCCC(=O)O.CCN(CC)CCO [N,N-diethylethanolammonium octanoate]"
assigned_class = "rule not met"

[[record]]
molecule = "CCN(CC)CCO.O=C(O)CO [N,N-diethylethanolammonium glycolate]"
assigned_class = "rule met"

[[record]]
molecule = "CC(=O)O.CN(C)CCOCCO"
assigned_class = "rule met"


---

The reader will find reported Refractive index (error ± ~2%) values listed item by item below.
PROCEDURE SUMMARY: Refractive index, Mettler Toledo Refracto 30 portable refractometer
Format: physicochemical
RUN PARAMETERS: product dried to water content between about 0.2 and 1% w/w
MEASURED PROPERTY: Refractive index (error ± ~2%)

[[record]]
molecule = "CC(=O)O.CCN(CC)CCO [N,N-diethylethanolammonium acetate]"
assay_result = 1.453

[[record]]
molecule = "COCCN(C)C.NS(=O)(=O)O"
assay_result = 1.472

[[record]]
molecule = "CC(=O)O.CN(C)CCOCCO"
assay_result = 1.45

[[record]]
molecule = "COCCN(C)C.CS(=O)(=O)O"
assay_result = 1.449

[[record]]
molecule = "CN(C)CCCO.O=C(O)CO [N,N-dimethylpropanolammonium glycolate]"
assay_result = 1.472

[[record]]
molecule = "CCCCNCCO.O=CO [N-butylethanolammonium formate]"
assay_result = 1.462

[[record]]
molecule = "CC(=O)O.CN(C)CCCO [N,N-dimethylpropanolammonium acetate]"
assay_result = 1.451

[[record]]
molecule = "CCCCCCCC(=O)O.CCN(CC)CCO [N,N-diethylethanolammonium octanoate]"
assay_result = 1.451

[[record]]
molecule = "CN(C)CCCO.O=CO [N,N-dimethylpropanolammonium formate]"
assay_result = 1.460

[[record]]
molecule = "COCCN(C)C.O=C(O)CO"
assay_result = 1.459

[[record]]
molecule = "CCC(=O)O.CCCCNCCO [N-butylethanolammonium propionate]"
assay_result = 1.457

[[record]]
molecule = "CCC(=O)O.CN(C)CCCO [N,N-dimethylpropanolammonium propionate]"
assay_result = 1.441

[[record]]
molecule = "CC(=O)O.COCCN(C)CCOC"
assay_result = 1.423

[[record]]
molecule = "CCN(CC)CCO.O=C(O)CO [N,N-diethylethanolammonium glycolate]"
assay_result = 1.466

[[record]]
molecule = "CCC(=O)O.COCCN(C)C"
assay_result = 1.422

[[record]]
molecule = "CC(=O)O.CCCCNCCO [N-butylethanolammonium acetate]"
assay_result = 1.455

[[record]]
molecule = "CCC(=O)O.COCCN(C)CCOC"
assay_result = 1.423

